- Method Summary: AUC (infinity) in wild-type Wistar rat at 20 mg/kg, po by LC-MS/MS analysis
- Assay type: ADME, organism-based
- Design: dose 20 mg/kg, route oral, time infinity
- Test Settings: plasma
Measured Attribute: AUC(0-inf)
A complete answer gives the number and then names the unit.

# input Give me measured AUC(0-inf), please, for this molecule: Nc1ccc(S(=O)(=O)Nc2ccccn2)cc1 [SULFAPYRIDINE]
# output 29400 ng·h/mL

* * *

- Method Summary: Half life in BCRP knockout Sprague-Dawley rat at 5 mg/kg, po by LC-MS/MS analysis
- Format: ADME, organism-based
- Parameters: dose 5 mg/kg, route oral
- Test Settings: in vivo
Measured Attribute: half-life (h)
Use h as the unit, but write only the number.

# input Give me measured half-life, please, for this compound: CC(=O)O[C@H]1C(=O)[C@@]2(C)[C@H]([C@H](OC(=O)c3ccccc3)[C@]3(O)C[C@H](OC(=O)[C@H](O)[C@@H](NC(=O)c4ccccc4)c4ccccc4)C(C)=C1C3(C)C)[C@]1(OC(C)=O)CO[C@@H]1C[C@@H]2O
# output 5.3
